src = patent US10351522B2

# reported Response (%) OX1R; entries follow
target: human OX1R (Homo sapiens, UniProt O43613); construct: expressed in transfected cells; host or cells: CHO (Chinese hamster ovary) cells, line CHOOX1R, co-expressing NFAT-luciferase; test: Agonist activity against OX1R: intracellular calcium (Fura-2AM, FDSS7000) in CHOOX1R cells; type: cell-based; settings: test compound 0.1 μM; relative to orexin-A as full agonist (100%)
Sequence (O43613 whole entry): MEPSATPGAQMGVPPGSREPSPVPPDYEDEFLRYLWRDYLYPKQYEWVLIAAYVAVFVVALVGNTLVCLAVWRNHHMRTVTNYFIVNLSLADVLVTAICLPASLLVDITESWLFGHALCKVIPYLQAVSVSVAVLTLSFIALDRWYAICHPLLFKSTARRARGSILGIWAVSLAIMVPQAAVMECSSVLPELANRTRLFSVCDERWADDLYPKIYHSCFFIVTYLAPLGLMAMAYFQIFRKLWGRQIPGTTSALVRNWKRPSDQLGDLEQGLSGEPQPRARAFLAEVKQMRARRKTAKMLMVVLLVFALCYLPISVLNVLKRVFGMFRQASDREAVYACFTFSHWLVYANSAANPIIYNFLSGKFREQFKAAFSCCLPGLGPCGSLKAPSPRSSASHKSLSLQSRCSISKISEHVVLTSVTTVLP

Examples with their reported Response (%) OX1R follow.
| molecule | Response (%) OX1R |
| --- | --- |
| COc1ccc(-c2cccc(C(=O)N(C)C)c2)cc1S(=O)(=O)Nc1cccc(N2CCCCN(c3cccc(N(C)C)c3)C2=O)c1 [Example 136] | <5% |
| CCN(Cc1ccccc1)C(=O)c1ccc(OC)c(S(=O)(=O)Nc2cccc(NC(=O)Nc3cccc(N(C)C)c3)c2)c1 [Example 101] | <5% |
| COc1cccc(Nc2c(Nc3cccc(NS(=O)(=O)c4cc(-c5cccc(C(=O)N(C)C)c5)ccc4OC)c3)c(=O)c2=O)c1 [Example 82] | <5% |
| COc1ccc(C(=O)NCc2cccnc2)cc1S(=O)(=O)Nc1cccc(NC(=O)Nc2ccc(N(C)C)cc2)c1 [Example 109] | 8% |

Ask: GET /values?readout=Response (%) OX1R&system=human OX1R (Homo sapiens, UniProt O43613)&item= COc1ccc(-c2cccc(C(=O)N(C)C)c2)cc1S(=O)(=O)Nc1cccc(N2CCN(c3ccc(N(C)C)cc3)C2=O)c1 [Example 131]
Reply: <5%

Ask: GET /values?readout=Response (%) OX1R&system=human OX1R (Homo sapiens, UniProt O43613)&item= COc1ccc(-c2cccc(C(=O)N(C)C)c2)cc1S(=O)(=O)Nc1cccc(NS(=O)(=O)N(C)C)c1 [Example 87]
Reply: <5%

Ask: GET /values?readout=Response (%) OX1R&system=human OX1R (Homo sapiens, UniProt O43613)&item= COc1ccc(-c2cccc(C(=O)N(C)C)c2)cc1S(=O)(=O)Nc1cccc(N2CCCN(c3ccc(N(C)C)cc3)C2=O)c1 [Example 135]
Reply: 8%

Ask: GET /values?readout=Response (%) OX1R&system=human OX1R (Homo sapiens, UniProt O43613)&item= Cc1ccc(-c2cccc(C(=O)N(C)C)c2)cc1S(=O)(=O)Nc1cccc(NC(=O)Nc2cccc(N(C)C)c2)c1 [Example 117]
Reply: <5%

Ask: GET /values?readout=Response (%) OX1R&system=human OX1R (Homo sapiens, UniProt O43613)&item= COc1ccc(-c2cccc(C(=O)N(C)C)c2)cc1S(=O)(=O)Nc1cccc(N=Nc2ccc(O)cc2NC(=O)OC(C)(C)C)c1 [Example 98]
Reply: 8%

Ask: GET /values?readout=Response (%) OX1R&system=human OX1R (Homo sapiens, UniProt O43613)&item= COc1ccccc1Nc1c(Nc2cccc(NS(=O)(=O)c3cc(-c4cccc(C(=O)N(C)C)c4)ccc3OC)c2)c(=O)c1=O [Example 83]
Reply: <5%

Ask: GET /values?readout=Response (%) OX1R&system=human OX1R (Homo sapiens, UniProt O43613)&item= COc1ccc(-c2cccc(C(=O)N(C)C)c2)cc1S(=O)(=O)Nc1cccc(N2CCCN(c3ccccc3)C2=O)c1 [Example 132]
Reply: <5%

Ask: GET /values?readout=Response (%) OX1R&system=human OX1R (Homo sapiens, UniProt O43613)&item= COc1ccc(-c2cccc(C(=O)N(C)C)c2)cc1S(=O)(=O)Nc1cccc(NC(=O)Nc2cccc(N(C)C)c2)n1 [Example 124]
Reply: 8%

Ask: GET /values?readout=Response (%) OX1R&system=human OX1R (Homo sapiens, UniProt O43613)&item= COc1ccc(-c2cccc(C(=O)N(C)C)c2)cc1S(=O)(=O)Nc1cccc(NS(=O)(=O)Nc2cccc(C)c2)c1 [Example 90]
Reply: <5%

Ask: GET /values?readout=Response (%) OX1R&system=human OX1R (Homo sapiens, UniProt O43613)&item= COc1ccc(-c2cccc(C(=O)N(C)C)c2)cc1S(=O)(=O)Nc1cccc(N2CCCN(c3ccccc3N(C)C)C2=O)c1 [Example 133]
Reply: 25%

Ask: GET /values?readout=Response (%) OX1R&system=human OX1R (Homo sapiens, UniProt O43613)&item= COc1ccc(Nc2c(Nc3cccc(NS(=O)(=O)c4cc(-c5cccc(C(=O)N(C)C)c5)ccc4OC)c3)c(=O)c2=O)cc1 [Example 81]
Reply: <5%

Ask: GET /values?readout=Response (%) OX1R&system=human OX1R (Homo sapiens, UniProt O43613)&item= COc1ccc(-c2cccc(C(=O)N(C)C)c2)cc1S(=O)(=O)Nc1cccc(N2CCN(c3ccccc3N(C)C)C2=O)c1 [Example 129]
Reply: <5%

Ask: GET /values?readout=Response (%) OX1R&system=human OX1R (Homo sapiens, UniProt O43613)&item= CN(C)C(=O)c1cccc(-c2ccc(O)c(S(=O)(=O)Nc3cccc(NC(=O)Nc4cccc(N(C)C)c4)c3)c2)c1 [Example 115]
Reply: <5%

Ask: GET /values?readout=Response (%) OX1R&system=human OX1R (Homo sapiens, UniProt O43613)&item= CN(C)C(=O)c1cccc(-c2ccc(Cl)c(S(=O)(=O)Nc3cccc(NC(=O)Nc4cccc(N(C)C)c4)c3)c2)c1 [Example 118]
Reply: 9%

Ask: GET /values?readout=Response (%) OX1R&system=human OX1R (Homo sapiens, UniProt O43613)&item= CCN(Cc1cccnc1)C(=O)c1ccc(OC)c(S(=O)(=O)Nc2cccc(NC(=O)Nc3ccccc3N(C)C)c2)c1 [Example 113]
Reply: <5%

Ask: GET /values?readout=Response (%) OX1R&system=human OX1R (Homo sapiens, UniProt O43613)&item= CCN(Cc1ccccc1)C(=O)c1ccc(OC)c(S(=O)(=O)Nc2cccc(NC(=O)Nc3ccc(N(C)C)cc3)c2)c1 [Example 110]
Reply: <5%

Ask: GET /values?readout=Response (%) OX1R&system=human OX1R (Homo sapiens, UniProt O43613)&item= COc1ccc(-c2cccc(C(=O)N(C)C)c2)cc1S(=O)(=O)Nc1cccc(N2CCN(c3cccc(N(C)C)c3)C2=O)c1 [Example 130]
Reply: <5%

Ask: GET /values?readout=Response (%) OX1R&system=human OX1R (Homo sapiens, UniProt O43613)&item= CCN(Cc1cccnc1)C(=O)c1ccc(OC)c(S(=O)(=O)Nc2cccc(NC(=O)Nc3ccc(N(C)C)cc3)c2)c1 [Example 111]
Reply: <5%

Ask: GET /values?readout=Response (%) OX1R&system=human OX1R (Homo sapiens, UniProt O43613)&item= COc1ccc(C(=O)NCCCNC(=O)OC(C)(C)C)cc1S(=O)(=O)Nc1cccc(NC(=O)Nc2cccc(N(C)C)c2)c1 [Example 104]
Reply: 7%

Ask: GET /values?readout=Response (%) OX1R&system=human OX1R (Homo sapiens, UniProt O43613)&item= COc1ccc(C(=O)N(C)C)cc1S(=O)(=O)Nc1cccc(NC(=O)Nc2ccccc2N(C)C)c1 [Example 114]
Reply: <5%

Ask: GET /values?readout=Response (%) OX1R&system=human OX1R (Homo sapiens, UniProt O43613)&item= COc1ccc(C(=O)NCc2cccnc2)cc1S(=O)(=O)Nc1cccc(NC(=O)Nc2cccc(N(C)C)c2)c1 [Example 103]
Reply: <5%

Ask: GET /values?readout=Response (%) OX1R&system=human OX1R (Homo sapiens, UniProt O43613)&item= COc1ccc(-c2cccc(C(=O)N(C)C)c2)cc1S(=O)(=O)Nc1ccccc1NC(=O)Nc1cccc(N(C)C)c1 [Example 121]
Reply: <5%

Ask: GET /values?readout=Response (%) OX1R&system=human OX1R (Homo sapiens, UniProt O43613)&item= COc1ccc(-c2cccc(C(=O)N(C)C)c2)cc1S(=O)(=O)Nc1cccc(NS(C)(=O)=O)c1 [Example 89]
Reply: <5%
